Data origin, for the record: patent US12624096B2

# Tested Target: hT40 (Homo sapiens, UniProt P10636)
# Sequence (P10636 1-441 isoform P10636-8): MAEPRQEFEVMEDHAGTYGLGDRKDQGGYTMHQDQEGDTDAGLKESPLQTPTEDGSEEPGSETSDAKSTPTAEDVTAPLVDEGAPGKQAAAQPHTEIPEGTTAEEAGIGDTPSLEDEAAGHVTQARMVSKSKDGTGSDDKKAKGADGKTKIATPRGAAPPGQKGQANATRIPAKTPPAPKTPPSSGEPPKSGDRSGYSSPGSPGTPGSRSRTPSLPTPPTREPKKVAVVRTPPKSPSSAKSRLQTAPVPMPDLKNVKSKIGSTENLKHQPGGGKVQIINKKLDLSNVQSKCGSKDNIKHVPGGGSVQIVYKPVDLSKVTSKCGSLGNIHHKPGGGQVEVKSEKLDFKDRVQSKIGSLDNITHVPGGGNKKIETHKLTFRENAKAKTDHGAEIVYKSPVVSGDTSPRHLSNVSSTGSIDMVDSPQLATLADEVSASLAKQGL
# Experimental Protocol: Biacore X100 SPR, scAb captured via anti-HuCk, hT40 as analyte
# Format: binding
# Assay Conditions: '3a' and '3b' scAbs, Table 25, hT40
# Experimental: Surface plasmon resonance (SPR) is widely regarded as the gold standard for real time measurement of protein-protein interactions such as antibody binding. […] The single cycle kinetics protocol was similar and utilised the same level of scAb capture. […] Binding responses were analysed in Biacore X100 evaluation software and data fitted to a 1:1 binding model to obtain kinetic and affinity characterisation.
Observable: kd (s⁻¹)
Provide only the numeric value, understood in s⁻¹.

Prompt line: Supply measured kd of 3aA6: anti-tau clone, sequence in b345 (protein, 3aA6 amino acid sequence) scFv: QVRLQESGSSLVKPSQTLSLVCTVSGFPLTSNAVGWVRQAPGKAPEWLGLIDIDGDTAYNPALESRLSITRDTSKSQVSLSLSSVAIEDTAVYYCARHYDKWGYADSIDYWGPGLLVTVSSEGKSSGASGESKVDDQALLTQPSSVFGSLGQRVSITCSGSSSNVGYGDYVGWYQQVPGSAPKLLIYDATTRASGVPDRFSGSRSGNTATLTISSLQAEDEADYYCASYQNERSGVFGSGTRLTVLG in your reply.
Response line: 0.0188
